FYI, the data here is from ChEMBL document CHEMBL2218924.

Biological target: Serine/threonine-protein kinase 24 (Homo sapiens) (UniProt Q9Y6E0)
Sequence (Q9Y6E0 whole entry, looked up): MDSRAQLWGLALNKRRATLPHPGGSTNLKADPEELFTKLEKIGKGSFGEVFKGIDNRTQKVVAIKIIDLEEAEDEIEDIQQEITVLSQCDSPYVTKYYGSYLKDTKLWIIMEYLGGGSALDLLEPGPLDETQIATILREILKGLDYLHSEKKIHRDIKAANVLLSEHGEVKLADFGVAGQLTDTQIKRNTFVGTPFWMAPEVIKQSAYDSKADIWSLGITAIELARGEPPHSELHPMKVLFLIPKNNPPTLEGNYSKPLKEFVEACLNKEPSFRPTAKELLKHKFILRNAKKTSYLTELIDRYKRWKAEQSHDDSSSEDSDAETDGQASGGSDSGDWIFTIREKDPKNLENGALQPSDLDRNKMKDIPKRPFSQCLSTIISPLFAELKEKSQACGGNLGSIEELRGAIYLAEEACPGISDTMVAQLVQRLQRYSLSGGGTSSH
Details: at 10 µM
Given measured residual activity, output condition met if it is greater than or equal to 70% and condition not met if not.

Incoming: API: above_or_equal(metric=residual activity, cutoff=70%) for item NCCNc1ncc(C(N)=O)c(Nc2cccc(C(F)(F)F)c2)n1
Outgoing: condition not met

Incoming: Hi team, for O=C(Nc1ccc(Cl)cc1)c1ccccc1NCc1ccncc1 , is the recorded residual activity at or above 70%?
Outgoing: condition met

Incoming: Hi team, for O=C(O)/C=C/c1cc(Br)c(Br)c(Br)c1Br , is the recorded residual activity at or above 70%?
Outgoing: condition met

Incoming: Identify whether the reported residual activity of the following molecule is 70% or greater: CC(C)(C)c1nc2c3ccc(F)cc3c3c(=O)[nH]ccc3c2[nH]1
Outgoing: condition not met

Incoming: Hello, I need to know if N#Cc1c(NC(=O)c2cccc3ccccc23)sc2c1CCCC2 has measured residual activity not below 70%. Thanks!
Outgoing: condition met

Incoming: Please tell me: is the molecule NC(=O)c1cccc(-c2cc(Nc3ccc(OC(F)(F)F)cc3)ncn2)c1 at or over 70% in terms of residual activity?
Outgoing: condition met

Incoming: Quick check, residual activity >= 70%? COc1ccc(Cl)cc1NC(=O)Nc1cc(C)nc2ccccc12
Outgoing: condition met

Incoming: In plain terms: is recorded residual activity at least 70% for COc1cc2ncnc(Nc3cccc(Cl)c3)c2cc1OC ?
Outgoing: condition met

###

For each of the compounds below, state its residual activity.
Biological target: Myotonin-protein kinase (Homo sapiens) (UniProt Q09013)
Sequence (Q09013 whole entry): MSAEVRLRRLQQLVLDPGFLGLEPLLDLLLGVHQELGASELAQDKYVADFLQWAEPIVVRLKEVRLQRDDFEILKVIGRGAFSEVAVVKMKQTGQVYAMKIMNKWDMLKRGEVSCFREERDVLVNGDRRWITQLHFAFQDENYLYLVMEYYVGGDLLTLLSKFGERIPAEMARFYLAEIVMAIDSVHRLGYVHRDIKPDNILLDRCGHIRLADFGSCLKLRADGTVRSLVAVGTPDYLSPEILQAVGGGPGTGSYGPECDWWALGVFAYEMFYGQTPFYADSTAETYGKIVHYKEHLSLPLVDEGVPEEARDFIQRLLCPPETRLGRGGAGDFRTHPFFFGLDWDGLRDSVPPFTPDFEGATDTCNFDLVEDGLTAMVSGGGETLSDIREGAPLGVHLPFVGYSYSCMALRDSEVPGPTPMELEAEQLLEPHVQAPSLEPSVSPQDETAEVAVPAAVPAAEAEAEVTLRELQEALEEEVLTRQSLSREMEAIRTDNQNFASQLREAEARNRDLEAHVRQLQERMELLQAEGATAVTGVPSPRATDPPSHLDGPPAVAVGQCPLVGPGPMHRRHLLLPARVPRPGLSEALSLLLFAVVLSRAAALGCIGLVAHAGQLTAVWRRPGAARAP
Conditions: at 10 µM
All answers are understood in %, so give the number only.

Incoming: Please report residual activity for the following compound: CCN(CC)CCNC(=O)c1c(C)[nH]c(/C=C2\C(=O)Nc3ccc(Cl)cc32)c1C
Outgoing: 68

Incoming: Supply residual activity value. Item: O=C1NC(=O)C(c2cn(CCCn3ccnc3)c3ccccc23)=C1Nc1ccccc1
Outgoing: 124

Incoming: Input CC(C)[C@H](CO)Nc1nc(Nc2cc(N)cc(Cl)c2)c2ncn(C(C)C)c2n1 , output reported residual activity.
Outgoing: 90

Incoming: Query residual activity for N#Cc1c(NC(=O)c2cccc3ccccc23)sc2c1CCCC2
Outgoing: 91

Incoming: Using the record for O=C(O)/C=C/c1cc(Br)c(Br)c(Br)c1Br , state its measured residual activity.
Outgoing: 76

Incoming: Item O=c1cc(N2CCNCC2)oc2c(-c3ccccc3)cccc12 : provide residual activity
Outgoing: 141

Incoming: Indicate the recorded residual activity value for this compound: Nc1n[nH]c2nc3ccccc3nc12
Outgoing: 76

Incoming: Using the record for CCN1/C(=C/C(C)=O)Sc2ccc(OC)cc21 , state its measured residual activity.
Outgoing: 70

Incoming: Supply recorded residual activity for O=C(CCCc1ccc(-c2ccccc2F)cc1)Nc1ccc(O)cc1 here.
Outgoing: 97

Incoming: Consider the compound COc1cc2nccc(Oc3ccc(NC(=S)NC(=O)c4ccccc4C)cc3)c2cc1OC and give its recorded residual activity.
Outgoing: 141

Incoming: Provide measured residual activity value, entry: COc1cc2nccc(Oc3ccc(NC(=O)Nc4cc(C)on4)c(Cl)c3)c2cc1OC
Outgoing: 148

Incoming: Please look at this compound and report its residual activity: O=C1NC(=O)C(c2cn(CCCO)c3ncccc23)=C1c1cnccn1
Outgoing: 82

Incoming: Please give the documented residual activity of Cn1c2ccccc2c2c3c(c4c5ccccc5n(CCC#N)c4c21)CNC3=O
Outgoing: 114

Incoming: In one line, give reported residual activity of the entry COc1ccc(-c2cnc3c(-c4ccsc4)cnn3c2)cc1 .
Outgoing: 129

Incoming: Respond only with residual activity recorded for O=C1C(Cl)=C(N2C(=O)CCC2=O)C(=O)c2ccccc21
Outgoing: 85

Incoming: State its residual activity: COc1ccc2c(c1)c(C1=C(c3c[nH]c4ccccc34)C(=O)NC1=O)cn2CCCN(C)C
Outgoing: 104

Incoming: Supply reported residual activity belonging to this compound: O=C(c1cc2cc(O)ccc2[nH]1)c1cc2cc(O)ccc2[nH]1
Outgoing: 122

Incoming: Retrieve residual activity measured for CC(C)N(CCC(=O)c1ccc2ccccc2c1)Cc1ccccc1 and print it.
Outgoing: 131

Incoming: Indicate its recorded residual activity; the compound in question is CC(C)(C)n1nc(Cc2cccc3ccccc23)c2c(N)ncnc21
Outgoing: 119

Incoming: Annotate the compound COc1cc2c(cc1OC)-c1n[nH]c(Nc3cccc(F)c3)c1C2 with its measured residual activity.
Outgoing: 136

Incoming: Read off the recorded residual activity for CC(C)c1nn(-c2c(Cl)cccc2Cl)c2nc(Cc3ccc(OCCO)cc3)[nH]c(=O)c12
Outgoing: 87

Incoming: Provide measured residual activity value, entry: Cn1sc(=O)n(Cc2ccccc2)c1=O
Outgoing: 81

Incoming: Using the record for COc1cc2ncnc(Nc3cccc(Cl)c3)c2cc1OC , state its measured residual activity.
Outgoing: 113

Incoming: Give the measured residual activity for Nc1ncnc2c1c(-c1ccc(Oc3ccccc3)cc1)cn2C1CCCC1
Outgoing: 127

Incoming: Look up and report measured residual activity for this entry: Nc1nccc(-c2c(-c3ccc(F)cc3)ncn2C2CCNCC2)n1
Outgoing: 83
